TARGET_DESC: Niemann-Pick C1-like 1 (NPC1L1) (Homo sapiens, UniProt Q9UHC9)
Construct: hNPC1L1 CDS (NM_001101648.2) with 3 × Flag tag at the 3′ end, stably expressed in Caco2 cells (hL1-Caco2)
Sequence (Q9UHC9 other isoform, or with tags, fused parts or gaps): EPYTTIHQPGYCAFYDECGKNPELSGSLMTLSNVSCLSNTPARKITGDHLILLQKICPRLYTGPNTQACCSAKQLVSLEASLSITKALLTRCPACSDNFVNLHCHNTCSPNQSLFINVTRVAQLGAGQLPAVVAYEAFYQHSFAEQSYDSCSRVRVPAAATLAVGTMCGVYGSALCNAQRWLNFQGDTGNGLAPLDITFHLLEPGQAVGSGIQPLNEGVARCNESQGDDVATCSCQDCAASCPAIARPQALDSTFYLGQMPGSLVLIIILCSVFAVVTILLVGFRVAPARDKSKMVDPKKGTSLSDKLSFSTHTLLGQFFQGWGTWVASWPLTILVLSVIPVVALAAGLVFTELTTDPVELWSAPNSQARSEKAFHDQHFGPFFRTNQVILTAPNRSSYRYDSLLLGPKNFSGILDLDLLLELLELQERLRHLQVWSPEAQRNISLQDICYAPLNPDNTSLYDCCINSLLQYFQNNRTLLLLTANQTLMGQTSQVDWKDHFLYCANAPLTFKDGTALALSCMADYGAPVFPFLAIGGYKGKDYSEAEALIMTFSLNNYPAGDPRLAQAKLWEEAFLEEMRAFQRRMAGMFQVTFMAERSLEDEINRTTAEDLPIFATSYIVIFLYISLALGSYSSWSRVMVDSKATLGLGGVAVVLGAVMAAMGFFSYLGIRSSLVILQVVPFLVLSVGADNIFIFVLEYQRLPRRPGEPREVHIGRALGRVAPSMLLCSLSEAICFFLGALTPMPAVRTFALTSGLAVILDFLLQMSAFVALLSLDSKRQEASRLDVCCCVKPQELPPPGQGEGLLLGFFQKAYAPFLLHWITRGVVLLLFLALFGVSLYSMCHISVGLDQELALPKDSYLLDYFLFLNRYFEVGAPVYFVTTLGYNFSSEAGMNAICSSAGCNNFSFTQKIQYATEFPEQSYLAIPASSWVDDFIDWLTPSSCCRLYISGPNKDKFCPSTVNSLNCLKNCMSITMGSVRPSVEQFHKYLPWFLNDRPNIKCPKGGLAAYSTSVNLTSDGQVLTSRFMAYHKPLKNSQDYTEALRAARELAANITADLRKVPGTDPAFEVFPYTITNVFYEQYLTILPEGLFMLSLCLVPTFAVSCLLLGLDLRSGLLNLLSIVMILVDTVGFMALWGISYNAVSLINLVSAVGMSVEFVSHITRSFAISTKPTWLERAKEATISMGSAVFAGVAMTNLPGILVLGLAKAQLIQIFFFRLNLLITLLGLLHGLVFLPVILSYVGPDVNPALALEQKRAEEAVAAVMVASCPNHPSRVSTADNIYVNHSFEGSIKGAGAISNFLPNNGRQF
ASSAY_INFO: reference inhibitor; NPC1L1 inhibition in hL1-Caco2 cells (NBD-cholesterol uptake)
Format: cell-based
pIC50: −log10 of the molar value.

- MOLECULE: "O=C1[C@H](CC[C@H](O)c2ccc(F)cc2)[C@@H](c2ccc(O)cc2)N1c1ccc(F)cc1 [ezetimibe]"
  pIC50: 6.46
